Source: patent US20070128217A1

Recorded measurements of Binding of serum 1a to linear peptides of protein E of SARS-CoV Urbani, one per entry
tested on: antibodies in sera from SARS patients (sera 1a, 1b, 2, 6, 37, 62, London, SARS-yellow, SARS-green); type: binding, human
Form field (numeric): enter value without unit.

Use these answered entries as a reference point.
monomer sequence | experimental result
LLFLAFVVFLLVTLA | 0.8
GTLIVNSVLLFLAFV | 0.8
VTLAILTALRLCAYC | 0.6

Q) Quick one: Binding of serum 1a to linear peptides of protein E of SARS-CoV Urbani for VNSVLLFLAFVVFLL ?
A) 0.9

Q) Repeat for the following sequence: RLCAYCCNIVNVSLV
A) 0.6

Q) Repeat for the following sequence: TALRLCAYCCNIVNV
A) 0.7

Q) Repeat for the following sequence: VVFLLVTLAILTALR
A) 0.7

Q) Repeat for the following sequence: ETGTLIVNSVLLFLA
A) 0.8

Q) Repeat for the following sequence: AILTALRLCAYCCNI
A) 0.6

Q) Repeat for the following sequence: NSVLLFLAFVVFLLV
A) 0.8

----------
tested on: control sera (pooled serum of ten healthy LUMC hospital workers; commercial negative donor pooled serum from the Dutch bloodbank); assay type: binding, human
Recorded measurements of Binding of Control serum LUMC to linear peptides, one per entry
Form field (numeric): enter value without unit.

Use these answered entries as a reference point.
monomer sequence | experimental result
TALRLCAYCCNIVNV | 0.6
FLAFVVFLLVTLAIL | 0.4
RLCAYCCNIVNVSLV | 0.6
SVLLFLAFVVFLLVT | 0.5
LLFLAFVVFLLVTLA | 0.4
VTLAILTALRLCAYC | 0.6

Q) Quick one: Binding of Control serum LUMC to linear peptides for FVVFLLVTLAILTAL ?
A) 0.5

Q) Repeat for the following sequence: ETGTLIVNSVLLFLA
A) 0.8

----------
Recorded measurements of Binding of serum 6 to linear peptides of protein E of SARS-CoV Urbani, one per entry
test system: antibodies in sera from SARS patients (sera 1a, 1b, 2, 6, 37, 62, London, SARS-yellow, SARS-green); format: binding, human
Form field (numeric): enter value without unit.

Use these answered entries as a reference point.
monomer sequence | experimental result
VTLAILTALRLCAYC | 0.3
VNSVLLFLAFVVFLL | 0.6
NSVLLFLAFVVFLLV | 0.9
VVFLLVTLAILTALR | 0.6

Okay, now this sequence:
Q) Quick one: Binding of serum 6 to linear peptides of protein E of SARS-CoV Urbani for TLIVNSVLLFLAFVV ?
A) 0.5

----------
tested on: antibodies in sera from SARS patients (sera 1a, 1b, 2, 6, 37, 62, London, SARS-yellow, SARS-green); format: binding, human
outcome measure: Binding of serum 1b to linear peptides of protein E of SARS-CoV Urbani
Form field (numeric): enter value without unit.

monomer sequence | experimental result
RLCAYCCNIVNVSLV | 0.5

Q) Quick one: Binding of serum 1b to linear peptides of protein E of SARS-CoV Urbani for FVVFLLVTLAILTAL ?
A) 0.4

Q) Repeat for the following sequence: VNSVLLFLAFVVFLL
A) 0.1

Q) Repeat for the following sequence: NSVLLFLAFVVFLLV
A) 0.6

----------
tested on: antibodies in sera from SARS patients (sera 1a, 1b, 2, 6, 37, 62, London, SARS-yellow, SARS-green); type: binding, human
Recorded measurements of Binding of serum SARS-yellow to linear peptides of protein E of SARS-CoV Urbani, one per entry
Form field (numeric): enter value without unit.

monomer sequence | experimental result
LLFLAFVVFLLVTLA | 0.2
TLIVNSVLLFLAFVV | 0.3
RLCAYCCNIVNVSLV | 0.2
VTLAILTALRLCAYC | 0.2

Q) Quick one: Binding of serum SARS-yellow to linear peptides of protein E of SARS-CoV Urbani for GTLIVNSVLLFLAFV ?
A) 0.2

----------
test system: antibodies in sera from SARS patients (sera 1a, 1b, 2, 6, 37, 62, London, SARS-yellow, SARS-green); type: binding, human
Recorded measurements of Binding of serum 6 to looped/cyclic peptides of protein E of SARS-CoV Urbani, one per entry
Form field (numeric): enter value without unit.

Use these answered entries as a reference point.
monomer sequence | experimental result
RLCAYCCNIVNVSLV | 0.7
GTLIVNSVLLFLAFV | 0.3

Q) Quick one: Binding of serum 6 to looped/cyclic peptides of protein E of SARS-CoV Urbani for SVLLFLAFVVFLLVT ?
A) 0.4

Q) Repeat for the following sequence: VNSVLLFLAFVVFLL
A) 0.3

Q) Repeat for the following sequence: LIVNSVLLFLAFVVF
A) 0.4

Q) Repeat for the following sequence: NSVLLFLAFVVFLLV
A) 0.4

Q) Repeat for the following sequence: VTLAILTALRLCAYC
A) 0.6

----------
tested on: rabbit serum obtained by immunizing a rabbit with the SARS-CoV strain Frankfurt 1; type: binding; design: unit not given here
outcome measure: Binding of a rabbit serum to looped peptides
Form field (numeric): enter value without unit.

Use these answered entries as a reference point.
monomer sequence | assay target | experimental result
MYSFVSEETGTLIVN | rabbit serum obtained by immunizing a rabbit with the SARS-CoV strain Frankfurt 1 | 0.2
SVLLFLAFVVFLLVT | rabbit serum obtained by immunizing a rabbit with the SARS-CoV strain Frankfurt 1 | 0.2
RLCAYCCNIVNVSLV | rabbit serum obtained by immunizing a rabbit with the SARS-CoV strain Frankfurt 1 | 0.2

Q) Quick one: Binding of a rabbit serum to looped peptides for FLAFVVFLLVTLAIL ?
A) 0.2

Q) Repeat for the following sequence: FVVFLLVTLAILTAL
A) 0.2

Q) Repeat for the following sequence: VVFLLVTLAILTALR
A) 0.2

----------
test system: antibodies in sera from SARS patients (sera 1a, 1b, 2, 6, 37, 62, London, SARS-yellow, SARS-green); format: binding, human
outcome measure: Binding of serum SARS-yellow to linear peptides of protein E of SARS-CoV Urbani

monomer sequence | experimental result
VNSVLLFLAFVVFLL | 0.6
MYSFVSEETGTLIVN | 0.1
SVLLFLAFVVFLLVT | 0.3

Q) Quick one: Binding of serum SARS-yellow to linear peptides of protein E of SARS-CoV Urbani for AILTALRLCAYCCNI ?
A) 0.1
